tested.target: MEKK2 (Homo sapiens, UniProt Q9Y2U5)
Construct: purchased ProQinase #0583-0000-1
Sequence (Q9Y2U5 1-619): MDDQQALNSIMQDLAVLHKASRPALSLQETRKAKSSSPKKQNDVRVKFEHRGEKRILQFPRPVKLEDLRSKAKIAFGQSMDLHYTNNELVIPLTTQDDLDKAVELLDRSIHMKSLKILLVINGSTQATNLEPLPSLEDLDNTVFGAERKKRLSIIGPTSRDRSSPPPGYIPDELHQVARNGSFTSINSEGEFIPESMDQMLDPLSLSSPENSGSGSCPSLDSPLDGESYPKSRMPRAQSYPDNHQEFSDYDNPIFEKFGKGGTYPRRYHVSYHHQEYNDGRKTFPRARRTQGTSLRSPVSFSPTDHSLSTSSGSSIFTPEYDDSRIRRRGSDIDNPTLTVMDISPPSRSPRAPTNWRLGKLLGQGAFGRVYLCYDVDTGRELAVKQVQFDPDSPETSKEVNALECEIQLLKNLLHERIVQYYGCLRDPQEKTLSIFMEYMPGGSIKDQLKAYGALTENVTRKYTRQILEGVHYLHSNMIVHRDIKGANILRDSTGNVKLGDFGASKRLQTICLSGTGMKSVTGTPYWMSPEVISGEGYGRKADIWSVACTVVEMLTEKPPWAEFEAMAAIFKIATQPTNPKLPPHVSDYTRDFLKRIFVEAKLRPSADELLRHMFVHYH
assay.remarks: Radiometric protein kinase assay, MEKK2
Type: biochemical
assay.setup: substrate Casein, ATP 0.2 μM; read-out: MEKK2, potency derived from IC50-values
pIC50: −log10 of the molar value.
Entries and their pIC50 values follow.

Guide cases for pIC50, answers given:
compound	pIC50
CCCS(=O)(=O)Nc1ccc(F)c(C(=O)c2n[nH]c3ncc(-c4ccc(S(N)(=O)=O)cc4)cc23)c1F [Example 15]	5.00 to 6.00
CCCS(=O)(=O)Nc1ccc(F)c(C(=O)c2n[nH]c3ncc(-c4ccc(O)cc4)cc23)c1F [Example 19]	5.00 to 6.00

(Q) Retrieve pIC50 on MEKK2 (Homo sapiens, UniProt Q9Y2U5); query CCCS(=O)(=O)Nc1c(F)ccc(C(=O)c2n[nH]c3ncc(-c4ccc(S(N)(=O)=O)cc4C)cc23)c1F [Example 70]
(A) 6.00 to 6.30

(Q) Please respond with reported pIC50 (system MEKK2 (Homo sapiens, UniProt Q9Y2U5)) for CCCS(=O)(=O)Nc1ccc(F)c(C(=O)c2n[nH]c3ncc(-c4ccc(C(=O)O)cc4)cc23)c1F [Example 51d] .
(A) 5.00 to 6.00

(Q) Tell me its pIC50 on MEKK2 (Homo sapiens, UniProt Q9Y2U5): CCCS(=O)(=O)Nc1ccc(F)c(C(=O)c2n[nH]c3ncc(-c4ccc(F)cc4C)cc23)c1F [Example 4]
(A) < 5.00

(Q) Return reported pIC50 for target or system MEKK2 (Homo sapiens, UniProt Q9Y2U5), item CCCS(=O)(=O)Nc1ccc(F)c(C(=O)c2n[nH]c3ncc(-c4cccc([N+](=O)[O-])c4)cc23)c1F [Example 32] .
(A) < 5.00

(Q) Specify pIC50 for CCCS(=O)(=O)Nc1ccc(F)c(C(=O)c2n[nH]c3ncc(-c4ccc(C(N)=O)cc4)cc23)c1F [Example 51f] , system MEKK2 (Homo sapiens, UniProt Q9Y2U5).
(A) 5.00 to 6.00

(Q) Output reported pIC50 of the compound CCCS(=O)(=O)Nc1ccc(F)c(C(=O)c2n[nH]c3ncc(-c4ccc(S(N)(=O)=O)cc4F)cc23)c1F [Example 51m] on MEKK2 (Homo sapiens, UniProt Q9Y2U5).
(A) 5.00 to 6.00
